- PROCEDURE SUMMARY: Thermal decomposition temperature (TG/DTA, 2% weight reduction)
- Assay type: physicochemical
- CONDITION NOTES: point of 2% weight reduction; 10° C./minute from 30° C. to 500° C.; nitrogen atmosphere
REPORTED METRIC: Thermal decomposition temperature (°C)

O=C1c2cccc3c(C(F)(F)C(F)(F)C(F)(F)C(F)(F)F)ccc(c23)C(=O)N1OS(=O)(=O)c1c(F)c(F)c(F)c(F)c1F : 239
O=C1c2cccc3c(Oc4c(F)c(F)c(F)c(F)c4F)ccc(c23)C(=O)N1OS(=O)(=O)c1c(F)c(F)c(F)c(F)c1F : 247
O=C1c2cccc3c(Oc4cccc(C(F)(F)F)c4)ccc(c23)C(=O)N1OS(=O)(=O)c1c(F)c(F)c(F)c(F)c1F : 241
CC1(C)C2CCC1(CS(=O)(=O)ON1C(=O)c3cccc4c(OCC(F)(F)C(F)F)ccc(c34)C1=O)C(=O)C2 (stereo not drawn) : 231
O=C1c2cccc3c(Br)ccc(c23)C(=O)N1OS(=O)(=O)c1c(F)c(F)c(F)c(F)c1F : 243
CC1(C)C2CCC1(CS(=O)(=O)ON1C(=O)c3cccc4c(Oc5c(F)c(F)c(F)c(F)c5F)ccc(c34)C1=O)C(=O)C2 (stereo not drawn) : 245
